- Tested Target: MAPK14 (human)
- Assay Notes: Inhibition of LPS Stimulated TNF Production by U937 Cells
- Test Conditions: concentration not given here
Measurement Name: inhibition (%)

Answered cases to consult:
- Compound: "Cc1ccc(S(C)(=O)=O)cc1S(=O)(=O)N[C@@H](C)c1[nH]nc(-c2ccc(F)cc2)c1-c1ccncc1"
  inhibition [%]: 78
- Compound: "COc1ccccc1C(=O)N[C@H](C)c1[nH]nc(-c2ccc(F)cc2)c1-c1ccncc1"
  inhibition [%]: 23
- Compound: "O=C(O)c1ccccc1S(=O)(=O)NCCc1[nH]nc(-c2ccc(F)cc2)c1-c1ccncc1"
  inhibition [%]: 40
- Compound: "COc1ccc(CC(=O)N[C@H](Cc2ccccc2)c2[nH]nc(-c3ccc(F)cc3)c2-c2ccncc2)cc1OC"
  inhibition [%]: 21
- Compound: "C[C@@H](NS(=O)(=O)c1ccc(Cl)s1)c1[nH]nc(-c2ccc(F)cc2)c1-c1ccncc1"
  inhibition [%]: 95

I = COc1ccc(CC(=O)NCCc2[nH]nc(-c3ccc(F)cc3)c2-c2ccncc2)cc1OC
II = O=S(=O)(NCc1[nH]nc(-c2ccc(F)cc2)c1-c1ccncc1)c1ccc(F)cc1Cl
q: When their inhibition values are compared, which is larger, I or II ? Use the label to indicate which entry you chose.
a: II
(II: 40%, I: 24%)

I = C[C@@H](NS(=O)(=O)c1cccc(Cl)c1)c1[nH]nc(-c2ccc(F)cc2)c1-c1ccncc1
II = C[C@@H](NC(=O)c1ccc(C(F)(F)F)cc1F)c1[nH]nc(-c2ccc(F)cc2)c1-c1ccncc1
III = CNC(=O)N[C@@H](Cc1ccccc1)c1[nH]nc(-c2ccc(F)cc2)c1-c1ccncc1
q: Ascending sort, inhibition. Lab note: record answer as labels in requested order.
a: III, II, I
(III: 11%, II: 48%, I: 97%)

P = Cc1ccc(S(=O)(=O)N[C@@H](Cc2ccccc2)C(=O)NCCCc2[nH]nc(-c3ccc(F)cc3)c2-c2ccncc2)cc1
Q = CC(Oc1ccccc1)C(=O)NCCCc1[nH]nc(-c2ccc(F)cc2)c1-c1ccncc1 (centres undefined)
R = CCOC(=O)C(CC(C)C)NC(=O)NCc1[nH]nc(-c2ccc(F)cc2)c1-c1ccncc1 (centres undefined)
S = O=C(NCCc1[nH]nc(-c2ccc(F)cc2)c1-c1ccncc1)c1cnc2ccccc2n1
q: Ascending sort, inhibition. Lab note: record answer as labels in requested order.
a: R, S, P, Q
(R: 9%, S: 20%, P: 36%, Q: 60%)

a = C[C@H](NC(=O)c1ccccc1Br)c1[nH]nc(-c2ccc(F)cc2)c1-c1ccncc1
b = Cc1cccc(S(=O)(=O)NCc2[nH]nc(-c3ccc(F)cc3)c2-c2ccncc2)c1
q: When their inhibition values are compared, which is larger, a or b ? Use the label to indicate which entry you chose.
a: b
(b: 82%, a: 39%)

a = C[C@H](NC(=O)N[C@@H](C)c1[nH]nc(-c2ccc(F)cc2)c1-c1ccncc1)c1ccccc1
b = O=C(NCCCc1[nH]nc(-c2ccc(F)cc2)c1-c1ccncc1)NCc1cccnc1
c = C[C@@H](NS(=O)(=O)[C@@]12CC[C@H](CC1=O)C2(C)C)c1[nH]nc(-c2ccc(F)cc2)c1-c1ccncc1
d = Cc1ccc(S(=O)(=O)NCCc2[nH]nc(-c3ccc(F)cc3)c2-c2ccncc2)cc1
e = O=S(=O)(NCc1[nH]nc(-c2ccc(F)cc2)c1-c1ccncc1)c1cc(Cl)cc(Cl)c1O
q: Sort by inhibition, descending. Lab note: record answer as labels in requested order.
a: c, a, d, b, e
(c: 54%, a: 29%, d: 18%, b: 11%, e: 6%)

a = COc1cc(NC(=O)NCc2[nH]nc(-c3ccc(F)cc3)c2-c2ccncc2)cc(OC)c1OC
b = C[C@@H](NS(=O)(=O)C[C@@]12CC[C@H](CC1=O)C2(C)C)c1[nH]nc(-c2ccc(F)cc2)c1-c1ccncc1
q: Looking only at measured inhibition, which entry is lower, a or b ? Use the label to indicate which entry you chose.
a: a
(a: 29%, b: 61%)

a = O=C(NCc1[nH]nc(-c2ccc(F)cc2)c1-c1ccncc1)c1ccc(C(F)(F)F)cc1
b = NC(=O)NCCc1[nH]nc(-c2ccc(F)cc2)c1-c1ccncc1
q: When their inhibition values are compared, which is larger, a or b ? Use the label to indicate which entry you chose.
a: b

P = O=C(NCCCc1[nH]nc(-c2ccc(F)cc2)c1-c1ccncc1)NCCc1ccccn1
Q = CC(C)c1ccc(S(=O)(=O)N[C@H](C)c2[nH]nc(-c3ccc(F)cc3)c2-c2ccncc2)cc1
q: Looking only at measured inhibition, which entry is lower, P or Q ? Use the label to indicate which entry you chose.
a: P
